Each recorded value in this set is attributed to PubChem BioAssay (NCI).

Protocol: NCI Yeast Anticancer Drug Screen. Data for the mlh1 rad18 strain (AID 175)
Condition summary: S. cerevisiae mlh1 rad18 strain growth inhibition; at 50.0 µM
This is part of a sample that, as a whole, favours compounds with a hit. Of some 79,000 tested, about 15% had one in any assay. Activity calls are given as the source filed them. Cut-off read from the data, not from the text of the source: active = growth inhibition above about 70%; inactive = the rest.
Hello, when you answer, please use one of the following outcomes: 1.0 = active, 0.0 = inactive

The examples below pair each entry with its known result.
Cc1cc(=O)oc2c(C)c3occc(=O)c3cc12 :: 0.0
O=[N+]([O-])c1cc(Cl)cnc1Br :: 0.0
CC[N+](CC)(CC)c1ccccc1 :: 0.0
CS(=O)(=O)SCc1ccc([N+](=O)[O-])cc1 :: 1.0
CCOc1ccc(NC(=O)C2=C(C)NC(C)=C(C(=O)Nc3ccc(OCC)cc3)C2c2cccc([N+](=O)[O-])c2)cc1 :: 0.0
O=P(NC1CCCCC1)(OCc1ccccc1)OCc1ccccc1 :: 0.0
CCc1cc(O)c(Cl)c(C)c1Cl :: 0.0
CCCOC(=O)C(F)C(Br)C(=O)OCCC (stereo not drawn) :: 1.0
COc1cc(CSc2ccc(O)cc2)cc(O)c1O :: 1.0
CCCCCCN(CCCCCC)CC(O)c1ccnc2ccc(OC)cc12 (stereo not drawn) :: 0.0

Prompt: Query: recorded result category for CCCCCCCCCCCCCCCCCC(=O)NCCCN(C)C in this test
Response: 1.0

Prompt: Query: recorded result category for CCCCCCCCCCCC1=NCCO1 in this test
Response: 0.0

Prompt: Query: recorded result category for CC(=O)Nc1ccc(/C=C/[N+](=O)[O-])cc1 in this test
Response: 1.0
